target: Fibroblast growth factor 2 (Homo sapiens); experiment: FGF2 binders on small-molecule microarrays, primary screen, biochemical, small-molecule microarray, 635/667 nm fluorescence (AID 1133); conditions: small-molecule microarray binding, FGF2, fluorescence 635/667; higher = more signal
Kindly state composite z-score for each of the entries shown.
Numbers only.

Look over these answered cases.
compound=C=CCNC(=O)[C@H]1[C@@H]2C(=O)O[C@@H](c3ccccc3)[C@@H](c3ccccc3)N2[C@@H](c2ccccc2OCCO)[C@]12C(=O)Nc1ccc(C#CCCO)cc12 number=2.05
compound=O=C(CS)NCCCCCCNC(=O)[C@@H]1C[C@@H]2C(=O)N[C@@H](Cc3ccccc3)C(=O)N2[C@@H]1c1cccc(OCCO)c1 number=1.76
compound="CCC(CC)C(O)C1C=CC2C(=O)NC(=O)C2N1Nc1ccccn1 (stereo not drawn)" number=0.0277
compound=Cc1ccc(N2C(=O)c3ccccc3[C@@H](C(=O)NC3CC3)[C@@H]2c2ccc(CO)cc2)nc1 number=0.392
compound=COC(=O)[C@H](Cc1ccccc1)N[C@@H](/C=C/C1CC1)[C@H](O)Cc1ccccc1 number=-0.489

For each of the compounds below, note its composite z-score.
1. COc1cccc(-c2cccc(=O)o2)c1
2. [N-]=[N+]=Nc1ccccc1[C@H]1OC(c2ccc(OCCCO)cc2)=N[C@@]1(CCS(=O)(=O)c1ccccc1)C(=O)NCC(O)CO (stereo partly drawn)
3. CC(C)[Si]1(C(C)C)O[C@@H](c2ccccc2)c2cc(-c3ccc(-c4ccc(Cl)c(Cl)c4)o3)nc(-c3ccccc3)c21

Response given:
[0.0278, 0.057, 0.0622]

* * *

experiment: small-molecule microarray binders of probe aCHRDL2, primary screen, biochemical, biotinylated probe, 635/667 nm fluorescence (AID 1100); settings: higher = more signal
Kindly state composite z-score for each of the entries shown.
Answers are plain numbers.

molecule=COC(=O)[C@@]1(Cc2ccc(OC)cc2)[C@H]2c3cc(C(=O)N(C)C)n(Cc4ccc(S(C)(=O)=O)cc4)c3C[C@H]2CN1C(=O)c1ccccc1 measured_quantity="composite z-score" number=0.573
molecule=CCCC[C@@H]1C[C@H]1[C@@H](NC(=O)c1ccco1)c1ccc(-c2ccccc2)cc1 measured_quantity="composite z-score" number=0.272

For each of the molecules below, note its composite z-score.
1. CC1(C)C2C=C(C(O)C3C=CC4C(=O)NC(=O)C4N3Nc3ccc(Cl)cc3Cl)C[C@@H]1C2 (stereo partly specified)
2. N#Cc1ccc(NN2C(C(O)C(c3ccccc3)c3ccccc3)C=CC3C(=O)N(c4ccccc4)C(=O)C32)cc1 (stereo unspecified)
3. C=C(/C(=C/C[C@H](OC(C)=O)c1ccc(CO)o1)c1cc(C(=O)OC)ccc1OC)C(C)C
4. Cc1ccc(S[C@]2(C(=O)NC3CC3)CC(=O)N(Cc3ccccc3)[C@@H]2c2ccc(CO)cc2I)cc1
5. C=CCNC(=O)[C@@H]1[C@H]2C(=O)O[C@H](c3ccccc3)[C@H](c3ccccc3)N2[C@H](c2ccc(O)cc2)[C@@]12C(=O)N(C(=O)OCCOC)c1ccc(C#CCNC(N)=O)cc12
6. CC(C)N1C(=O)C[C@@](C(=O)NCC(F)(F)F)(c2ccc([N+](=O)[O-])cc2)[C@H]1c1ccc(CO)cc1
7. O[C@@H](Cc1ccccc1)[C@H]1C2C=CCCC=C2CN1Cc1cccc(Cl)c1 (stereo partly specified)

Response given:
1.16
0.725
-0.0899
0.717
0.658
0.52
-0.284

For each of the molecules below, note its composite z-score.
1. O=C1C2C=CC(C(O)CCc3ccccc3)N(Nc3ccccc3F)C2C(=O)N1c1ccccc1 (stereo unspecified)
2. C=CCOC(=O)[C@@H]1[C@H]2C(=O)O[C@H](c3ccccc3)[C@H](c3ccccc3)N2[C@H](c2ccc(OCCOC(=O)[C@H]3C[C@H]4C(=O)N5CCC[C@H]5C(=O)N4[C@H]3c3ccc(O)cc3)cc2)[C@@]12C(=O)Nc1ccc(I)cc12
3. C=CC[C@@]12N=C(c3ccc(OCCCO)cc3)O[C@@H]1c1ccccc1N(C)C2=O
4. COCCCNC(=O)[C@@]1(C)c2ccccc2C(=O)N(C(C)C)[C@H]1c1ccc(CO)cc1

Response given:
1: 1.09; 2: 0.0375; 3: 0.899; 4: 0.343

* * *

target: Fibroblast growth factor 2 (Homo sapiens) (UniProt P09038); assay: FGF2 binders on small-molecule microarrays, primary screen, biochemical, small-molecule microarray, 635/667 nm fluorescence (AID 1133); conditions: small-molecule microarray binding, FGF2, fluorescence 635/667; higher = more signal
Sequence (P09038 whole entry, looked up): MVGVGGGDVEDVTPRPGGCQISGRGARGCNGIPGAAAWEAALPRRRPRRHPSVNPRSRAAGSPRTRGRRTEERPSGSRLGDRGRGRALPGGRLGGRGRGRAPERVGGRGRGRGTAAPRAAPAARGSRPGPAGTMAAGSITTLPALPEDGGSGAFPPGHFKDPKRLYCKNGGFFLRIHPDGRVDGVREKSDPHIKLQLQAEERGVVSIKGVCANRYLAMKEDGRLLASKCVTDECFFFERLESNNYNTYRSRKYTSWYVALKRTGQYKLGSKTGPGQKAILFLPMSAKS
Kindly state composite z-score for each of the entries shown.
Give bare numbers.

For each of the compounds below, note its composite z-score.
1. Cc1nc2cc(Br)ccc2c(=O)o1
2. CO[C@H]1O[C@H](CO)[C@@H](OC(=O)Nc2ccc(Oc3ccccc3)cc2)[C@H](OC(=O)Nc2ccc3c(c2)OCO3)[C@H]1OC(=O)Nc1ccc2c(c1)OCO2
3. NCCCCCCNC(=O)[C@@H]1C[C@@H]2C(=O)NCC(=O)N2[C@@H]1c1ccc(O)cc1

Response given:
[-0.0519, 0.957, 1.62]

For each of the compounds below, note its composite z-score.
1. C[C@H]1C2[C@H](Cc3ccccc3)NC(=O)[C@]23C(=O)N[C@H](Cc2ccccc2)C(=O)N2CCC[C@H]2C(=O)NC/C=C\C/C=C/C3[C@@H]2O[C@]12C (stereo not given in full)
2. CCOC(=O)C[C@H]1[C@H](OC(=O)c2ccc(C(=O)c3ccccc3)cc2)[C@@H](NC(=O)CC(C)C)c2cc(OCCCO)ccc2N1C(=O)c1ccc2ccccc2n1

Response given:
1. 0.212
2. 0.94

* * *

experiment: inhibitors of hydroxyurea-induced Chk1 phosphorylation, primary screen, imaging, HeLa, phospho-Chk1 nuclear intensity (AID 1187); settings: hydroxyurea-induced phospho-Chk1 immunofluorescence imaging, higher = more signal; further: test concentration not given here
Kindly state z-score for each of the entries shown.
Answers are plain numbers.

compound=C=C(CCCC)/C(=C/C[C@@H](OC(=O)c1ccncc1)c1ccc(OCCO)cc1)c1cc(C(=O)OC)ccc1OC number=0.106
compound=C=CCOC(=O)[C@H]1[C@@H]2C(=O)O[C@@H](c3ccccc3)[C@@H](c3ccccc3)N2[C@@H](c2ccc(OCCOC(=O)[C@@H]3C[C@@H]4C(=O)N[C@@H](CCCCNC(C)=O)C(=O)N4[C@@H]3c3ccc(O)cc3)cc2)[C@]12C(=O)Nc1ccccc12 number=0.21

# context switch: different compound, same z-score
Challenge: Give the value of z-score reported for the following: "CC(C)OC(=O)C=C1C[C@@H](c2ccccn2)O[C@@H](c2ccccn2)O1"
Response given: 0.129

* * *

Kindly state z-score for each of the entries shown.
molecular target: Luciferin 4-monooxygenase (Photinus pyralis) (UniProt P08659); assay: firefly luciferase enzyme inhibitors, primary screen, biochemical, luminescence, purified enzyme, 2006 set (AID 1141); conditions: SteadyGlo luminescence, 30 min, higher = more signal, called active from +8 up or from −8 down;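 further: cell-free assay with purified firefly luciferase at 100 ng per well in PBS; test concentration not given here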
Sequence (P08659 whole entry, looked up): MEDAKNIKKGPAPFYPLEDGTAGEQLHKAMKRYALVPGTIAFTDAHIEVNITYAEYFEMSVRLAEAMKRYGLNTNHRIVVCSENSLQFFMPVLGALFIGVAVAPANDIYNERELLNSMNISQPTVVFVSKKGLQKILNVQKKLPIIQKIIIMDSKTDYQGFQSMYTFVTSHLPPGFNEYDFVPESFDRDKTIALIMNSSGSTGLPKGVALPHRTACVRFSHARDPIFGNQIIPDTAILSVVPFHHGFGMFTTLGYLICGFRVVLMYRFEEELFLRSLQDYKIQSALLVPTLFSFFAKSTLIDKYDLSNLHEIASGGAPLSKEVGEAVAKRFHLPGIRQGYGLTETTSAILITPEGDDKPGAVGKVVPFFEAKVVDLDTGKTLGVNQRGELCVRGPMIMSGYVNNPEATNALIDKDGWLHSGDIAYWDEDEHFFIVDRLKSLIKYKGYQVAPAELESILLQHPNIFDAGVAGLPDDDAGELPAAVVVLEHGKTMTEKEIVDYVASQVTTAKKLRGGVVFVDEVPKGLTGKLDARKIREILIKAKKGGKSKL
Numbers only.

compound=CCCC[C@H]1OB(O)C[C@H]2C1=C(COC)Cn1c(=O)n(-c3ccccc3)c(=O)n12 measured_quantity=z-score number=0.382

For each of the compounds below, note its z-score.
1. COC(=O)[C@@]1(CCS(=O)(=O)c2ccccc2)N=C(c2ccc(OCCCO)cc2)O[C@H]1c1ccccc1CN=[N+]=[N-]
2. C=CCOC(=O)[C@@H]1[C@H]2C(=O)O[C@H](c3ccccc3)[C@H](c3ccccc3)N2[C@H](c2ccc(OCCOC(=O)[C@@H]3C[C@@H]4C(=O)NCC(=O)N4[C@@H]3c3ccc(O)cc3)cc2)[C@@]12C(=O)Nc1ccc(I)cc12
3. CC(C)c1ccc(NN2C(C(O)c3ccc(B(O)O)cc3)C=CC3C(=O)N(c4ccccc4)C(=O)C32)cc1 (configuration not stated)
4. COc1ccc(CCNC(=O)[C@@]2(C)c3ccccc3C(=O)N(C(C)C)[C@H]2c2ccc(CO)cc2)cc1
5. O=C(OCc1ccccc1)C1=CCC2c3[nH]c4ccccc4c3C(=O)C1N2S(=O)(=O)c1ccccc1[N+](=O)[O-] (configuration not stated)
6. COc1cccc(-c2cccc(=O)o2)c1

Response given:
1. -0.282
2. 0.401
3. -6.16
4. -1.19
5. 0.895
6. -0.0346

* * *

experiment: small-molecule binders of probe aNOTCH3, primary screen, biochemical, small-molecule microarray, 635/667 nm fluorescence (AID 1120); settings: higher = more signal;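 further: probe is a biotin-tagged antibody raised against NOTCH3 rather than NOTCH3 protein; score merges spot fluorescence near 667 nm with spot signal to noise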
Decide by composite z-score: equal to or exceeding 0.04 means True, less means False.

Challenge: Determine whether this compound has composite z-score no lower than 0.04: CN1C(=O)C2C=CC(C(O)C3CC=CCC3)N(N(c3ccccc3)c3ccccc3)C2C1=O (configuration not stated)
Response given: True

Challenge: Determine whether this compound has composite z-score no lower than 0.04: "COc1ccc(CCNC(=O)[C@@]2(Sc3ccc(C)cc3)CC(=O)N(C3Cc4ccccc4C3)[C@@H]2c2ccc(CO)cc2I)cc1"
Response given: True

Challenge: Determine whether this compound has composite z-score no lower than 0.04: "NC(=O)NCC#Cc1ccc2c(c1)[C@]1(C(=O)N2)[C@H](C(N)=O)[C@H]2C(=O)O[C@H](c3ccccc3)[C@H](c3ccccc3)N2[C@@H]1c1ccc(O)cc1"
Response given: True

Challenge: Determine whether this compound has composite z-score no lower than 0.04: "NC(=O)NCC#Cc1ccc2c(c1)[C@]1(C(=O)N2)[C@H](c2ccc(O)cc2)N2[C@H](c3ccccc3)[C@H](c3ccccc3)OC(=O)[C@H]2[C@@H]1C(=O)O"
Response given: False

Challenge: Determine whether this compound has composite z-score no lower than 0.04: "O=C(N1CCCCC1)[C@]1(Cc2ccccc2)N=C(c2ccc(OCCCO)cc2)O[C@@H]1c1ccccc1"
Response given: True

Challenge: Determine whether this compound has composite z-score no lower than 0.04: C=CCC(OC(C)=O)[C@@H]1[C@@H](N(Cc2ccc(-c3ccccc3)cc2)C(=O)c2ccc(-c3ccccc3)cc2)c2cc(OCCCO)ccc2N1C(=O)Cc1ccc2ccccc2c1 (some centres not stated)
Response given: False

Challenge: Determine whether this compound has composite z-score no lower than 0.04: COc1cc(Br)cc(C(O)C2C=CC3C(=O)N(C)C(=O)C3N2N2CCCCC2)c1OC (configuration not stated)
Response given: False
